Consider the following molecules and their measured pIC50 readings.
System: MCF-7 cells
Method notes: In vitro cell activity assay (MCF-7, insulin stimulation, ELISA-One)
Assay type: cell-based
Condition details: Homo sapiens, MCF7, compound 2 hours in serum-free media, then 10 μg/ml insulin 30 min
pIC50: −log10 of the molar value.
Reported metric: pIC50

Molecule	Test target	Reported metric	Observed
COCCN(CCOc1cnc2ccc(-c3cnc(OC)c(NS(=O)(=O)c4ccc(F)cc4Cl)c3)cn2c1=O)CC(F)(F)F	MCF-7 cells	pIC50	≥ 7.30
COc1ncc(-c2ccc3ncc(OCCNCCO)c(=O)n3c2)cc1NS(=O)(=O)c1ccc(F)cc1Cl	MCF-7 cells	pIC50	< 6.60
COc1ncc(-c2ccc3ncc(OCCNS(C)(=O)=O)c(=O)n3c2)cc1NS(=O)(=O)c1ccc(F)cc1Cl	MCF-7 cells	pIC50	7.00 to 7.30
Cc1nc(C)c(S(=O)(=O)Nc2cc(-c3ccc4ncc(OCCN5CCOCC5)c(=O)n4c3)cnc2N)s1	MCF-7 cells	pIC50	< 6.60
COc1ncc(-c2ccc3ncc(OCC4CN(C)C4)c(=O)n3c2)cc1NS(=O)(=O)c1ccc(F)cc1Cl	MCF-7 cells	pIC50	≥ 7.30
COc1ncc(-c2ccc3ncc(OCCN4CCOCC4C)c(=O)n3c2)cc1NS(=O)(=O)c1ccc(F)cc1Cl (stereo not shown)	MCF-7 cells	pIC50	7.00 to 7.30
COc1ncc(-c2ccc3ncc(OCCN4CCN(C)CC4)c(=O)n3c2)cc1NS(=O)(=O)c1ccc(F)cc1Cl	MCF-7 cells	pIC50	≥ 7.30
